- assayed.target: large-conductance calcium-activated potassium (maxi-K) channels from bovine aortic smooth muscle (Bos taurus)
- Construct: membrane patches excised from cultured bovine aortic smooth muscle cells; endogenous in cells; host or cells: cultured bovine aortic smooth muscle cells
- Sequence (Q28204 whole entry): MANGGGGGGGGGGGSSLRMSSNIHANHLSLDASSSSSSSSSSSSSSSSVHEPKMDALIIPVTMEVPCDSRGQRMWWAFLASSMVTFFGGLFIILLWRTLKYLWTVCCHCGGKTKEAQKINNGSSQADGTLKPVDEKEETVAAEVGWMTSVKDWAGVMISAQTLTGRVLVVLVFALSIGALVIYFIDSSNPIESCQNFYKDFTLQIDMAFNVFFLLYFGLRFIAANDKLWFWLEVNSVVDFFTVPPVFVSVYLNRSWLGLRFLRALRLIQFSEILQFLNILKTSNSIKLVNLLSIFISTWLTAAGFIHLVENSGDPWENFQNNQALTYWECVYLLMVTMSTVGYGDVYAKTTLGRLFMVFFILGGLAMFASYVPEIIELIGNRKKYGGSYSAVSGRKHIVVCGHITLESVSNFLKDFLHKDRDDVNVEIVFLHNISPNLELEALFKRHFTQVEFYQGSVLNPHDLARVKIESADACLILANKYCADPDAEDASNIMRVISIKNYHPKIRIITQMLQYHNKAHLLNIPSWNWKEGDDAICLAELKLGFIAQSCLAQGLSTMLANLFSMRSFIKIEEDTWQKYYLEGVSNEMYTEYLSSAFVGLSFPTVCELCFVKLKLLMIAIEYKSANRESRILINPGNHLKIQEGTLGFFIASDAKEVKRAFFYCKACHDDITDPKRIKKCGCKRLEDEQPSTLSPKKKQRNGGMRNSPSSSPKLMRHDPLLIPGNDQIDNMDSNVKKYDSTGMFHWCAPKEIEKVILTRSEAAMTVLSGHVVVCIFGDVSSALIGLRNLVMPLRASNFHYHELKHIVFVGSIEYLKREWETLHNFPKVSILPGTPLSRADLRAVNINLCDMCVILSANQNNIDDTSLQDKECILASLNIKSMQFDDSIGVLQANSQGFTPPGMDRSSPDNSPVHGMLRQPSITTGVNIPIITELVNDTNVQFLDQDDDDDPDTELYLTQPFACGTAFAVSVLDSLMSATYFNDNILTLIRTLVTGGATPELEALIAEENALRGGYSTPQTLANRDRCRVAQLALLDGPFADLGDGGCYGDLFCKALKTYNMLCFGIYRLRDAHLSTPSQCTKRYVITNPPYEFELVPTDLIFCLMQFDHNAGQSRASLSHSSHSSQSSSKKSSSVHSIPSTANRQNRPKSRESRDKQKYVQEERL
- Sequence (Q28067 whole entry partner): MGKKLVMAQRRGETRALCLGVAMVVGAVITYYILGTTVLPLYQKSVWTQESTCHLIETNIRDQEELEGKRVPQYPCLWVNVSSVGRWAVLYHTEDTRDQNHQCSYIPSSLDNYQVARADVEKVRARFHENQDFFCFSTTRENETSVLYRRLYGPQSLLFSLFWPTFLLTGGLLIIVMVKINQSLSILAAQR
- experiment.notes: Patch clamp recordings of maxi-K channel currents in excised inside-out membrane patches
- Type: biochemical
pIC50: −log10 of the molar value.
measurement.label: pIC50

| compound | pIC50 |
| --- | --- |
| CC(C)=CCOC(C)(C)[C@H]1O[C@H]2CC[C@]3(C)[C@@]4(C)c5[nH]c6ccc(CC=C(C)C)cc6c5C[C@@H]4CC[C@@]3(O)C23OC3[C@@H]1O (stereo partly drawn) | > 9.00 |
| CC(C)=CCc1cccc2[nH]c3c(c12)C[C@@H]1CC[C@@]2(O)C45OC4[C@@H]4OC(C=C(C)C)OC(C)(C)[C@H]4OC5=CC[C@]2(C)[C@@]31C (stereo partly drawn) | > 8.00 |
| CC(C)=CC1O[C@H]2C3OC34C(=CC[C@]3(C)[C@@]5(C)c6[nH]c7cccc(CC8OC8(C)C)c7c6C[C@@H]5CC[C@@]43O)O[C@@H]2C(C)(C)O1 (stereo partly drawn) | > 10.00 |
| COC(=O)C12C(O)C[C@@H](C(C)(C)O)OC1CC[C@@]1(C)[C@H]2CC[C@H]2Cc3c([nH]c4ccccc34)[C@@]21C (stereo partly drawn) [Compound E, methyl hydroxypaspalinate] | < 5.00 |
| CC(C)(O)[C@@H]1CC(O)C2(C(=O)O)C(CC[C@@]3(C)[C@H]2CC[C@H]2Cc4c([nH]c5ccccc45)[C@@]23C)O1 (stereo partly drawn) [Compound D, hydroxypaspalinic acid] | ~6.00 |

# input Item under review: CC(C)=CCOC(C)(C)[C@@H]1CC2OC23[C@H](CC[C@@]2(C)[C@H]3CC[C@H]3Cc4c([nH]c5ccccc45)[C@@]32C)O1 (stereo partly drawn) . Reported pIC50?
# output ~7.00
